# measured.on: T1, His-tagged, full-length PCSK9 (human, UniProt Q8NBP7 31-692)
# T1 construct: secreted PCSK9 is autocatalytically cleaved into prodomain and catalytic domain + CRD (from S153), which stay associated; also called His-PCSK9; proprotein convertase subtilisin/kexin type 9; not shown: His tag
# test: TR-FRET competition (PCSK9/EGF(A) assay); competitor EGF(A)-Fc;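 note: proximity signal from anti-His APC on PCSK9 paired with anti-Fc europium on the Fc ligand, read as normalized TR-FRET ratio across compound dilutions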
pIC50: −log10 of the molar value. Bridge positions count the residues as written; N and C are the ends. Square brackets hold non-standard residues; d marks the D form. * marks the point of attachment. Fmoc = O=C(OCC1c2ccccc2-c2ccccc21)*
outcome.measure: pIC50

Request: // pIC50 lookup, key: Ac-CRLP[dW]NLQRIGLPC-NH2 (disulfide 1-14; SMILES CC[C@H](C)[C@@H]1NC(=O)[C@H](CCCNC(=N)N)NC(=O)[C@H](CCC(N)=O)NC(=O)[C@H](CC(C)C)NC(=O)[C@H](CC(N)=O)NC(=O)[C@@H](Cc2c[nH]c3ccccc23)NC(=O)[C@@H]2CCCN2C(=O)[C@H](CC(C)C)NC(=O)[C@H](CCCNC(=N)N)NC(=O)[C@@H](NC(C)=O)CSSC[C@@H](C(N)=O)NC(=O)[C@@H]2CCCN2C(=O)[C@H](CC(C)C)NC(=O)CNC1=O) [Compound 106 (Ac-CRLPwNLQRIGLPC-NH2)]
Response: < 4.30

Request: Next record, please: Ac-CRLPWNLQAIGLPC-NH2 (disulfide 1-14; SMILES CC[C@H](C)[C@@H]1NC(=O)[C@H](C)NC(=O)[C@H](CCC(N)=O)NC(=O)[C@H](CC(C)C)NC(=O)[C@H](CC(N)=O)NC(=O)[C@H](Cc2c[nH]c3ccccc23)NC(=O)[C@@H]2CCCN2C(=O)[C@H](CC(C)C)NC(=O)[C@H](CCCNC(=N)N)NC(=O)[C@@H](NC(C)=O)CSSC[C@@H](C(N)=O)NC(=O)[C@@H]2CCCN2C(=O)[C@H](CC(C)C)NC(=O)CNC1=O) [Compound 72 (Ac-CRLPWNLQAIGLPC-NH2)]
Response: < 4.30

Request: Also Fmoc-GSGCWNLKRIGSQGC-NH2 (disulfide 4-15; SMILES CC[C@H](C)[C@@H]1NC(=O)[C@H](CCCNC(=N)N)NC(=O)[C@H](CCCCN)NC(=O)[C@H](CC(C)C)NC(=O)[C@H](CC(N)=O)NC(=O)[C@H](Cc2c[nH]c3ccccc23)NC(=O)[C@@H](NC(=O)CNC(=O)[C@H](CO)NC(=O)CNC(=O)OCC2c3ccccc3-c3ccccc32)CSSC[C@@H](C(N)=O)NC(=O)CNC(=O)[C@H](CCC(N)=O)NC(=O)[C@H](CO)NC(=O)CNC1=O) [Compound 98 (Fmoc-GSG-CWNLKRIGSQGC-NH2)] , if possible.
Response: 4.42

Request: Note, next up: Ac-CRLPWNLKRIGLPC-NH2 (disulfide 1-14; SMILES CC[C@H](C)[C@@H]1NC(=O)[C@H](CCCNC(=N)N)NC(=O)[C@H](CCCCN)NC(=O)[C@H](CC(C)C)NC(=O)[C@H](CC(N)=O)NC(=O)[C@H](Cc2c[nH]c3ccccc23)NC(=O)[C@@H]2CCCN2C(=O)[C@H](CC(C)C)NC(=O)[C@H](CCCNC(=N)N)NC(=O)[C@@H](NC(C)=O)CSSC[C@@H](C(N)=O)NC(=O)[C@@H]2CCCN2C(=O)[C@H](CC(C)C)NC(=O)CNC1=O) [Compound 67 (Ac-CRLPWNLKRIGLPC-NH2)]
Response: < 4.30
